Item-by-item account of binding signal
Target system: OsWRKY34 (Oryza sativa, UniProt Q0JBA9 1-250)
Sequence (Q0JBA9 entry or part of it): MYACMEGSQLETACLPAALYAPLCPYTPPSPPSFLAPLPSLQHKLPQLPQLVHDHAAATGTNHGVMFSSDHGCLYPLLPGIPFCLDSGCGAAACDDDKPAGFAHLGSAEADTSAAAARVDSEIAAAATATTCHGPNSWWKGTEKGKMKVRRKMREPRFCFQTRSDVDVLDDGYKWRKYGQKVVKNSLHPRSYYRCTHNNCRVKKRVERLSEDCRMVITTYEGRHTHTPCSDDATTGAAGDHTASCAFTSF
Method notes: protein-binding microarray (RPBM); PBS, 2% BSA, 51.3 ng/ul salmon testes DNA, 50 uM zinc acetate, 200 nM TF, 25 C, 1 h; high values mean tight binding
Applied conditions: protein: recombinant; tags: N-terminal polyhistidine and DsRed monomer fusion (pET32a); label: CyDye5-dUTP incorporated in the synthesized complementary strand; 3' TTTTT single-stranded linker to array surface; dsDNA, one strand shown
The full ranking holds about 68,000 sequences; the median of “fluorescence intensity (a.u.)” is about 9,100, and the highest 2% start at about 16,000. What follows is part of a selection rich in the highest values, with near analogues and random picks from the rest.
Property label: binding signal

entry_sequence=CGCTGCTTCTGATCATCTCCCGTTCTTGCATTCTTCTTCTCGGAGTCACCTAGTGCAG property_label="binding signal" val="19400 fluorescence intensity (a.u.)"
entry_sequence=TTCCTTTTTTTATGCAACTTTGACAAGCCTAATAGATATACGGAGTCACCTAGTGCAG property_label="binding signal" val="8500 fluorescence intensity (a.u.)"
entry_sequence=CCAACTCCGAACGCCTCTTCTTCTCCTCACCGCCGCCGAACGGAGTCACCTAGTGCAG property_label="binding signal" val="9650 fluorescence intensity (a.u.)"
entry_sequence=CTCGCCATCTCTGCCGCCGGTCCGCCGCCTCGCTCGCTCGCGGAGTCACCTAGTGCAG property_label="binding signal" val="9470 fluorescence intensity (a.u.)"
entry_sequence=GTTAACTTGCTTATATGGTACTAGAAGAAAAACTTAATGGCGGAGTCACCTAGTGCAG property_label="binding signal" val="64900 fluorescence intensity (a.u.)"
entry_sequence=CACCACCTTTGTTTGCTGCTCTCCATTTTTTTTCTTCGTTCGGAGTCACCTAGTGCAG property_label="binding signal" val="10200 fluorescence intensity (a.u.)"
entry_sequence=ATCCCGGCCTGCTCTTGCGCTTTGACTTTTTGTAGAGTTTCGGAGTCACCTAGTGCAG property_label="binding signal" val="18200 fluorescence intensity (a.u.)"
entry_sequence=TGCTGCTGCTGTTGTTCGTGTATTGCTCCATCTGTGCACGCGGAGTCACCTAGTGCAG property_label="binding signal" val="9920 fluorescence intensity (a.u.)"
entry_sequence=TTATAAACTTGGTCAAACTTAATAAAGTTTGACTAGAAAACGGAGTCACCTAGTGCAG property_label="binding signal" val="8320 fluorescence intensity (a.u.)"
entry_sequence=CTCTTGCTGTTTCCTTTGCTCTGTTTCCTCTGCCTGCGCCCGGAGTCACCTAGTGCAG property_label="binding signal" val="8760 fluorescence intensity (a.u.)"
entry_sequence=GCGCGCGTCCCGTCACGTCTTTTCTCCTCGCCTATATGCCCGGAGTCACCTAGTGCAG property_label="binding signal" val="9050 fluorescence intensity (a.u.)"
entry_sequence=TTGTTCTTGCTGCATTTCTTCTTCTCGTTTTTTTTTCTTTCGGAGTCACCTAGTGCAG property_label="binding signal" val="16900 fluorescence intensity (a.u.)"
entry_sequence=ATCCCTCTGGTCGTCTCCTACCTCTCGGTTTCTTCACCCTCGGAGTCACCTAGTGCAG property_label="binding signal" val="14600 fluorescence intensity (a.u.)"
entry_sequence=ATTATGCATTTATTTTATTTGAAACTTTAATGCTTTTTTTCGGAGTCACCTAGTGCAG property_label="binding signal" val="8110 fluorescence intensity (a.u.)"
entry_sequence=AAGGATATAAGGGTGGTTGAGGGGTAGAATAGGAAGAAATCGGAGTCACCTAGTGCAG property_label="binding signal" val="9360 fluorescence intensity (a.u.)"
entry_sequence=GATCACATGGGCCACACTTTTTTTTAATTATTTTTTGTGTCGGAGTCACCTAGTGCAG property_label="binding signal" val="8040 fluorescence intensity (a.u.)"
entry_sequence=GGGCTTATTTTTTTTTTTTAACTTTGTTATGCTCTAGAAACGGAGTCACCTAGTGCAG property_label="binding signal" val="20100 fluorescence intensity (a.u.)"
entry_sequence=AAAATAGGCCAATAGGGTGTTGAGAGAAAAGGAGATATATCGGAGTCACCTAGTGCAG property_label="binding signal" val="17500 fluorescence intensity (a.u.)"
entry_sequence=TGTTTGCTGCTGCTGCTGCTCTGCTTTTCTCTTTTTTCTTCGGAGTCACCTAGTGCAG property_label="binding signal" val="9490 fluorescence intensity (a.u.)"
